- System: BDF1 mice, M5076 sarcoma s.c., survival/tumor T/C
- method_notes: NCI In Vivo Anticancer Drug Screen. Data for tumor model Sarcoma M5076 (subcutaneous) in B6D2F1 (BDF1) mice
- test_context: endpoint: median survival time; dose: 100.0 mg/kg/injection; schedule: Q01DX009 (ip); vehicle: saline; higher = longer survival
Results filed as inconclusive are left out.
reported_metric: T/C

Sample records with T/C:
compound	obs_value
COC(=N)CCCCC(=N)OC	98 % of control
C1CCC2OCCOCCOCCOCCOC2C1 (stereo not given)	113 % of control

// field: T/C; key: COC(=O)c1csc(C2OC(CO)C(O)C2O)n1 (stereo not given) ; value = 100 % of control

get_value(item= NCCNCC(O)CO (stereo not given) , readout=T/C) returns 112 % of control

Briefly, T/C measured for Nc1ccn(C2OC3COC2C3O)c(=O)n1 (stereo not given) : 110 % of control

---

- Tested on: BDF1 mice, M5076 sarcoma s.c., survival/tumor T/C
- method_notes: NCI In Vivo Anticancer Drug Screen. Data for tumor model Sarcoma M5076 (subcutaneous) in B6D2F1 (BDF1) mice
- test_context: endpoint: median survival time; dose: 100.0 mg/kg/injection; schedule: Q01DX009 (ip); vehicle: saline with Tween-80; higher = longer survival
- Description: The antitumor activity of compounds was measured in mice bearing transplantable tumors. Survival or tumor size were measured and the results are expressed as the measurement made in the treated group (T) divided by the measurement made in the vehicle treated control group (C). The tumor model used in this assay is Sarcoma M5076 (subcutaneous) in B6D2F1 (BDF1) mice
Records with an inconclusive call do not appear.
Entries and their T/C values follow.

Solved entries (count: 5):
compound	T/C
CCOC(=O)CCC1(C(=O)OC)C(=O)CCCCCCCC1C(=O)OC (stereo unspecified)	100 % of control
Cn1c2c(c(=O)n(C)c1=O)CS(=O)c1ccccc1N2 (stereo unspecified)	106 % of control
CSc1ccc(NC(=O)NNP(=S)(Oc2ccc(C(C)(C)C)cc2)Oc2ccc(C(C)(C)C)cc2)cc1	107 % of control
CCCCN1C(=O)/C(=C/c2ccccc2OC)SC1=S	107 % of control
CCc1ccc(NC(=O)/C=C\C(=O)O)cc1	105 % of control

Next compound, T/C to be filled in.
Note to self: T/C recorded for COc1ccc(/C=C2\SC(=S)N(C3CC3)C2=O)cc1OC was 93 % of control

---

- System: BDF1 mice, M5076 sarcoma s.c., survival/tumor T/C
- method_notes: NCI In Vivo Anticancer Drug Screen. Data for tumor model Sarcoma M5076 (subcutaneous) in B6D2F1 (BDF1) mice
- test_context: endpoint: mean tumor weight; dose: 150.0 mg/kg/injection; schedule: Q02DX011 (ip); vehicle: saline; higher = larger tumour
Records with an inconclusive call do not appear.
reported_metric: T/C

// known answers, use as guide
molecule	T/C
COc1cc2cc3c4cc(OC)c(OC)cc4cc[n+]3c(C)c2cc1OC (tested in a mixture with another compound)	13 % of control
O=c1[nH]c(=O)n(C2CC(O)C(CO)O2)cc1C(F)(F)F (centres undefined)	6 % of control
CC(C)[C@](O)(C(=O)OCC1=CC[N+]2([O-])CC[C@@H](O)[C@@H]12)[C@H](C)O (some centres undefined)	82 % of control

Now consider the entry below.
Notebook: O=C[C@@H](CO)O[C@H](C=O)n1cnc2c(=O)[nH]cnc21 , T/C read as 105 % of control
